Test: Cytotoxicity against human HeLa cells after 72 hrs by neutral red uptake assay
Type: cell-based
I'd appreciate it if you marked entries 1 when MNTC at 72 h is lower than 2000 nM and 0 when it is not.

Data request: I'd appreciate it if you could check whether O=C(c1cccnc1)N1N=C(c2ccc(O)cc2)CC1c1cccc(Br)c1 (stereo unspecified) has MNTC at 72 h smaller than 2000 nM.
Data returned: 0

Data request: Is MNTC at 72 h of Cc1ccc(C2CC(c3ccc(O)cc3)=NN2C(=O)c2cccnc2)cc1 (stereo unspecified) strictly below 2000 nM?
Data returned: 0

Data request: Please determine if CCOc1ccc(C2CC(c3ccc(O)cc3)=NN2C(=O)c2cccnc2)cc1OC (stereo unspecified) is below 2000 nM in terms of MNTC at 72 h.
Data returned: 0

Data request: Criterion: MNTC at 72 h strictly below 2000 nM. Is it met by O=C(c1cccnc1)N1N=C(c2ccc(O)cc2)CC1c1ccccc1 (stereo unspecified) ?
Data returned: 1

Data request: Take the compound O=C(c1cccnc1)N1N=C(c2ccc(O)cc2)CC1c1ccccc1Br (stereo unspecified) and say whether its MNTC at 72 h is less than 2000 nM.
Data returned: 0

Data request: Consider Cc1ccccc1C1CC(c2ccc(O)cc2)=NN1C(=O)c1cccnc1 (stereo unspecified) . Does its MNTC at 72 h lie strictly below 2000 nM?
Data returned: 1

Data request: In the record for CCN(CC)CCCC(C)Nc1ccnc2cc(Cl)ccc12.O=P(O)(O)O.O=P(O)(O)O (stereo unspecified) [CHLOROQUINE PHOSPHATE] , is MNTC at 72 h less than 2000 nM?
Data returned: 0

Data request: Consider the compound COc1ccc(Br)cc1C1CC(c2ccc(O)cc2)=NN1C(=O)c1cccnc1 (stereo unspecified) . Is its MNTC at 72 h strictly less than 2000 nM?
Data returned: 0

Data request: Strictly below 2000 nM in MNTC at 72 h? O=C(c1cccnc1)N1N=C(c2ccc(O)cc2)CC1c1cccc([N+](=O)[O-])c1 (stereo unspecified)
Data returned: 0

Data request: Input O=C(c1cccnc1)N1N=C(c2ccc(O)cc2)CC1c1ccc(Cl)cc1Cl (stereo unspecified) ; condition: MNTC at 72 h strictly below 2000 nM. Does it hold?
Data returned: 1

Data request: Please determine if COc1cc(C2CC(c3ccc(O)cc3)=NN2C(=O)c2cccnc2)cc(OC)c1OC (stereo unspecified) is below 2000 nM in terms of MNTC at 72 h.
Data returned: 1

This collection of values is drawn from ChEMBL document CHEMBL1156771.
